- Test system: Nucleic Acid
- PROTOCOL_DESCRIPTION: Binding affinity to wild type HIV1 TAR RNA assessed as association constant at pH 6.8 by ethidium bromide displacement assay based Scatchard analysis method
- Format: nucleic-acid assay
- PROTOCOL_CONDITIONS: Human immunodeficiency virus 1
ATTRIBUTE_MEASURED: K (×10⁷ /M)

SMILES_NOTATION: NC[C@@H]1O[C@H](O[C@H]2[C@@H](O)[C@H](O[C@@H]3[C@@H](O)[C@H](N)C[C@H](N)[C@H]3O[C@H]3O[C@H](CN)[C@@H](O)[C@H](O)[C@H]3N)O[C@@H]2Cn2cc(COCCCCCCCCCCCCOCc3cn(C[C@H]4O[C@@H](O[C@@H]5[C@@H](O)[C@H](N)C[C@H](N)[C@H]5O[C@H]5O[C@H](CN)[C@@H](O)[C@H](O)[C@H]5N)[C@H](O)[C@@H]4O[C@H]4O[C@@H](CN)[C@@H](O)[C@H](O)[C@H]4N)nn3)nn2)[C@H](N)[C@@H](O)[C@@H]1O
SCALE_UNIT: ×10⁷ /M
ENDPOINT_VALUE: 2.5

====

# pIC50 listing for each entry below
- SUBJECT_OF_TEST: Nucleic Acid
- PROTOCOL_DESCRIPTION: Binding affinity to wild type HIV1 TAR RNA at pH 6.8 by ethidium bromide displacement assay
- Format: nucleic-acid assay, Human immunodeficiency virus 1
pIC50: −log10 of the molar value.

SMILES_NOTATION: NC[C@@H]1O[C@H](O[C@H]2[C@@H](O)[C@H](O[C@@H]3[C@@H](O)[C@H](N)C[C@H](N)[C@H]3O[C@H]3O[C@H](CN)[C@@H](O)[C@H](O)[C@H]3N)O[C@@H]2Cn2cc(CCCCCCc3cn(C[C@H]4O[C@@H](O[C@@H]5[C@@H](O)[C@H](N)C[C@H](N)[C@H]5O[C@H]5O[C@H](CN)[C@@H](O)[C@H](O)[C@H]5N)[C@H](O)[C@@H]4O[C@H]4O[C@@H](CN)[C@@H](O)[C@H](O)[C@H]4N)nn3)nn2)[C@H](N)[C@@H](O)[C@@H]1O
pIC50: 6.90

SMILES_NOTATION: NC[C@@H]1O[C@H](O[C@H]2[C@@H](O)[C@H](O[C@@H]3[C@@H](O)[C@H](N)C[C@H](N)[C@H]3O[C@H]3O[C@H](CN)[C@@H](O)[C@H](O)[C@H]3N)O[C@@H]2Cn2cc(CCCc3cn(C[C@H]4O[C@@H](O[C@@H]5[C@@H](O)[C@H](N)C[C@H](N)[C@H]5O[C@H]5O[C@H](CN)[C@@H](O)[C@H](O)[C@H]5N)[C@H](O)[C@@H]4O[C@H]4O[C@@H](CN)[C@@H](O)[C@H](O)[C@H]4N)nn3)nn2)[C@H](N)[C@@H](O)[C@@H]1O
pIC50: 6.93

SMILES_NOTATION: NC[C@@H]1O[C@H](O[C@H]2[C@@H](O)[C@H](O[C@@H]3[C@@H](O)[C@H](N)C[C@H](N)[C@H]3O[C@H]3O[C@H](CN)[C@@H](O)[C@H](O)[C@H]3N)O[C@@H]2CO)[C@H](N)[C@@H](O)[C@@H]1O
pIC50: 6.42

SMILES_NOTATION: NC[C@@H]1O[C@H](O[C@H]2[C@@H](O)[C@H](O[C@@H]3[C@@H](O)[C@H](N)C[C@H](N)[C@H]3O[C@H]3O[C@H](CN)[C@@H](O)[C@H](O)[C@H]3N)O[C@@H]2Cn2cc(-c3ccc(-c4cn(C[C@H]5O[C@@H](O[C@@H]6[C@@H](O)[C@H](N)C[C@H](N)[C@H]6O[C@H]6O[C@H](CN)[C@@H](O)[C@H](O)[C@H]6N)[C@H](O)[C@@H]5O[C@H]5O[C@@H](CN)[C@@H](O)[C@H](O)[C@H]5N)nn4)cc3)nn2)[C@H](N)[C@@H](O)[C@@H]1O
pIC50: 6.82

SMILES_NOTATION: NC[C@@H]1O[C@H](O[C@H]2[C@@H](O)[C@H](O[C@@H]3[C@@H](O)[C@H](N)C[C@H](N)[C@H]3O[C@H]3O[C@H](CN)[C@@H](O)[C@H](O)[C@H]3N)O[C@@H]2Cn2cc(COCCCCCCCCOCc3cn(C[C@H]4O[C@@H](O[C@@H]5[C@@H](O)[C@H](N)C[C@H](N)[C@H]5O[C@H]5O[C@H](CN)[C@@H](O)[C@H](O)[C@H]5N)[C@H](O)[C@@H]4O[C@H]4O[C@@H](CN)[C@@H](O)[C@H](O)[C@H]4N)nn3)nn2)[C@H](N)[C@@H](O)[C@@H]1O
pIC50: 6.81

SMILES_NOTATION: C/C(CCc1cn(C[C@H]2O[C@@H](O[C@@H]3[C@@H](O)[C@H](N)C[C@H](N)[C@H]3O[C@H]3O[C@H](CN)[C@@H](O)[C@H](O)[C@H]3N)[C@H](O)[C@@H]2O[C@H]2O[C@@H](CN)[C@@H](O)[C@H](O)[C@H]2N)nn1)=C(/C)CCc1cn(C[C@H]2O[C@@H](O[C@@H]3[C@@H](O)[C@H](N)C[C@H](N)[C@H]3O[C@H]3O[C@H](CN)[C@@H](O)[C@H](O)[C@H]3N)[C@H](O)[C@@H]2O[C@H]2O[C@@H](CN)[C@@H](O)[C@H](O)[C@H]2N)nn1
pIC50: 6.84

SMILES_NOTATION: NC[C@@H]1O[C@H](O[C@H]2[C@@H](O)[C@H](O[C@@H]3[C@@H](O)[C@H](N)C[C@H](N)[C@H]3O[C@H]3O[C@H](CN)[C@@H](O)[C@H](O)[C@H]3N)O[C@@H]2Cn2cc(CCCCc3cn(C[C@H]4O[C@@H](O[C@@H]5[C@@H](O)[C@H](N)C[C@H](N)[C@H]5O[C@H]5O[C@H](CN)[C@@H](O)[C@H](O)[C@H]5N)[C@H](O)[C@@H]4O[C@H]4O[C@@H](CN)[C@@H](O)[C@H](O)[C@H]4N)nn3)nn2)[C@H](N)[C@@H](O)[C@@H]1O
pIC50: 6.84

SMILES_NOTATION: NC[C@@H]1O[C@H](O[C@H]2[C@@H](O)[C@H](O[C@@H]3[C@@H](O)[C@H](N)C[C@H](N)[C@H]3O[C@H]3O[C@H](CN)[C@@H](O)[C@H](O)[C@H]3N)O[C@@H]2Cn2cc(-c3cccc(-c4cn(C[C@H]5O[C@@H](O[C@@H]6[C@@H](O)[C@H](N)C[C@H](N)[C@H]6O[C@H]6O[C@H](CN)[C@@H](O)[C@H](O)[C@H]6N)[C@H](O)[C@@H]5O[C@H]5O[C@@H](CN)[C@@H](O)[C@H](O)[C@H]5N)nn4)c3)nn2)[C@H](N)[C@@H](O)[C@@H]1O
pIC50: 6.96

SMILES_NOTATION: NC[C@@H]1O[C@H](O[C@H]2[C@@H](O)[C@H](O[C@@H]3[C@@H](O)[C@H](N)C[C@H](N)[C@H]3O[C@H]3O[C@H](CN)[C@@H](O)[C@H](O)[C@H]3N)O[C@@H]2Cn2cc(COCCCCCCCCCCCCOCc3cn(C[C@H]4O[C@@H](O[C@@H]5[C@@H](O)[C@H](N)C[C@H](N)[C@H]5O[C@H]5O[C@H](CN)[C@@H](O)[C@H](O)[C@H]5N)[C@H](O)[C@@H]4O[C@H]4O[C@@H](CN)[C@@H](O)[C@H](O)[C@H]4N)nn3)nn2)[C@H](N)[C@@H](O)[C@@H]1O
pIC50: 6.84

SMILES_NOTATION: NC[C@@H]1O[C@H](O[C@H]2[C@@H](O)[C@H](O[C@@H]3[C@@H](O)[C@H](N)C[C@H](N)[C@H]3O[C@H]3O[C@H](CN)[C@@H](O)[C@H](O)[C@H]3N)O[C@@H]2Cn2cc(COCc3cn(C[C@H]4O[C@@H](O[C@@H]5[C@@H](O)[C@H](N)C[C@H](N)[C@H]5O[C@H]5O[C@H](CN)[C@@H](O)[C@H](O)[C@H]5N)[C@H](O)[C@@H]4O[C@H]4O[C@@H](CN)[C@@H](O)[C@H](O)[C@H]4N)nn3)nn2)[C@H](N)[C@@H](O)[C@@H]1O
pIC50: 6.95

====

# pIC50 listing for each entry below
- SUBJECT_OF_TEST: Nucleic Acid
- PROTOCOL_DESCRIPTION: Binding affinity to HIV1 TAR RNA U3 bulge mutant at pH 6.8 by ethidium bromide displacement assay
- Assay type: nucleic-acid assay, Human immunodeficiency virus 1
pIC50: −log10 of the molar value.

SMILES_NOTATION: NC[C@@H]1O[C@H](O[C@H]2[C@@H](O)[C@H](O[C@@H]3[C@@H](O)[C@H](N)C[C@H](N)[C@H]3O[C@H]3O[C@H](CN)[C@@H](O)[C@H](O)[C@H]3N)O[C@@H]2Cn2cc(COCCCCCCCCOCc3cn(C[C@H]4O[C@@H](O[C@@H]5[C@@H](O)[C@H](N)C[C@H](N)[C@H]5O[C@H]5O[C@H](CN)[C@@H](O)[C@H](O)[C@H]5N)[C@H](O)[C@@H]4O[C@H]4O[C@@H](CN)[C@@H](O)[C@H](O)[C@H]4N)nn3)nn2)[C@H](N)[C@@H](O)[C@@H]1O
SUBJECT_OF_TEST: Nucleic Acid
pIC50: 6.63
--
SMILES_NOTATION: NC[C@@H]1O[C@H](O[C@H]2[C@@H](O)[C@H](O[C@@H]3[C@@H](O)[C@H](N)C[C@H](N)[C@H]3O[C@H]3O[C@H](CN)[C@@H](O)[C@H](O)[C@H]3N)O[C@@H]2Cn2cc(CCCc3cn(C[C@H]4O[C@@H](O[C@@H]5[C@@H](O)[C@H](N)C[C@H](N)[C@H]5O[C@H]5O[C@H](CN)[C@@H](O)[C@H](O)[C@H]5N)[C@H](O)[C@@H]4O[C@H]4O[C@@H](CN)[C@@H](O)[C@H](O)[C@H]4N)nn3)nn2)[C@H](N)[C@@H](O)[C@@H]1O
SUBJECT_OF_TEST: Nucleic Acid
pIC50: 6.65
--
SMILES_NOTATION: NC[C@@H]1O[C@H](O[C@H]2[C@@H](O)[C@H](O[C@@H]3[C@@H](O)[C@H](N)C[C@H](N)[C@H]3O[C@H]3O[C@H](CN)[C@@H](O)[C@H](O)[C@H]3N)O[C@@H]2Cn2cc(COCc3cn(C[C@H]4O[C@@H](O[C@@H]5[C@@H](O)[C@H](N)C[C@H](N)[C@H]5O[C@H]5O[C@H](CN)[C@@H](O)[C@H](O)[C@H]5N)[C@H](O)[C@@H]4O[C@H]4O[C@@H](CN)[C@@H](O)[C@H](O)[C@H]4N)nn3)nn2)[C@H](N)[C@@H](O)[C@@H]1O
SUBJECT_OF_TEST: Nucleic Acid
pIC50: 6.73

Hello, the source for this data is ChEMBL document CHEMBL3588850, in case you need it.
